All figures here come from BindingDB's records for doi:10.1021/jm021114j.

target: Sterol 24-C-methyltransferase (Leishmania major); assay: In vitro inhibitory concentration against Leishmania major Sterol 24-C-methyltransferase (24-SMT)
measure-name: IC50
Please give the number followed by its unit.

Reference set (4 entries):
> print(dat)
                                   molecule  observed.result
1  CC(O)(C1CCCCN1)[C@H]1CC[C@H]2[C@@H]3CCC4C[C@@H](O[Si](C)(C)C(C)(C)C)CC[C@]4(C)[C@H]3CC[C@]12C (stereo not given in full)          12.2 µM
2  CC(O)(C1CCCNC1)[C@H]1CCC2C3CCC4C[C@@H](O)CC[C@]4(C)C3CC[C@@]21C (stereo not given in full)           0.1 µM
3  CCC(=O)N1CCCCC1C(C)(O)[C@H]1CCC2C3CCC4C[C@@H](O)CC[C@]4(C)C3CC[C@@]21C (stereo not given in full)          12.9 µM
4  CC(O)(C1CCCNC1)[C@H]1CCC2C3CCC4C[C@@H](O[Si](C)(C)C(C)(C)C)CC[C@]4(C)C3CC[C@@]21C (stereo not given in full)             8 µM

The record that follows has no IC50 shown yet.
Measured IC50 of CC(O)(c1cccnc1)[C@H]1CCC2C3CCC4C[C@@H](O)CC[C@]4(C)C3CC[C@@]21C (stereo not given in full) : 38.5 µM
